experiment: AUC (0-24hrs) in Wistar rat at 30 mg/kg, po by HPLC-MS/MS analysis; format: ADME, organism-based; settings: in vivo
value.type: AUC(0-t) (µM·h)
Report the value in µM·h with no unit label.

Exam item: For `CC[C@@H]1C(=O)N(C)c2cnc(Nc3ccc(C(=O)N[C@H]4CC[C@H](N5CCN(CC6CC6)CC5)CC4)cc3OC)nc2N1C(C)C` , write its AUC(0-t).
Marked response: 34

---

assay: Cmax in BomTac:NMRI-Foxn1nu mouse at 50 mg/kg, po by HPLC-MS/MS analysis; type: ADME, organism-based; conditions: in vivo
value.type: Cmax
# do not omit the unit; it follows the number

Exam item: For `CC[C@@H]1C(=O)N(C)c2cnc(Nc3ccc(C(=O)N[C@H]4CC[C@H](N5CCN(CC6CC6)CC5)CC4)cc3OC)nc2N1C(C)C` , write its Cmax.
Marked response: 5.7 µM

---

assay: Volume of distribution at steady state in Wistar rat at 10 mg/kg, iv by HPLC-MS/MS analysis; format: ADME, organism-based; conditions: in vivo, read-out: Vdss
value.type: Vd (L/kg)
Report the value in L/kg with no unit label.

Exam item: For `CC[C@@H]1C(=O)N(C)c2cnc(Nc3ccc(C(=O)N[C@H]4CC[C@H](N5CCN(CC6CC6)CC5)CC4)cc3OC)nc2N1C(C)C` , write its Vd.
Marked response: 22

---

tested on: HL-60; experiment: Antimitotic activity against human HL-60 cells assessed as inhibition of cell proliferation incubated for 72 hrs by Alamar blue based fluorescence spectrophotometric analysis; assay type: functional; conditions: HL-60, 72 h
value.type: pEC50
Keep it numeric: pEC50 is minus log10 of the concentration in mol/L.

Exam item: For `CC[C@@H]1C(=O)N(C)c2cnc(Nc3ccc(C(=O)N[C@H]4CC[C@H](N5CCN(CC6CC6)CC5)CC4)cc3OC)nc2N1C(C)C` , write its pEC50.
Marked response: 7.49

---

test system: Granta-519; test: Antimitotic activity against human Granta-519 cells assessed as inhibition of cell proliferation incubated for 72 hrs by Alamar blue based fluorescence spectrophotometric analysis; type: functional; details: Granta-519, 72 h
value.type: EC50 (µM)
Report the value in µM with no unit label.

Exam item: For `CC[C@@H]1C(=O)N(C)c2cnc(Nc3ccc(C(=O)N[C@H]4CC[C@H](N5CCN(CC6CC6)CC5)CC4)cc3OC)nc2N1C(C)C` , write its EC50.
Marked response: 0.015

---

test: AUC (0 to 24 hrs) in human HCT-116 cells xenografted in BomTac:NMRI-Foxn1nu mouse at 15 mg/kg, iv administered twice a week upto 6 weeks by HPLC-MS/MS analysis; type: ADME, organism-based; settings: in vivo, 1008 h
value.type: AUC (µM·h)
Report the value in µM·h with no unit label.

Exam item: For `CC[C@@H]1C(=O)N(C)c2cnc(Nc3ccc(C(=O)N[C@H]4CC[C@H](N5CCN(CC6CC6)CC5)CC4)cc3OC)nc2N1C(C)C` , write its AUC.
Marked response: 37

---

tested on: THP-1; assay: Antimitotic activity against human THP-1 cells assessed as inhibition of cell proliferation incubated for 72 hrs by Alamar blue based fluorescence spectrophotometric analysis; assay type: functional; settings: THP-1, 72 h
value.type: pEC50
Keep it numeric: pEC50 is minus log10 of the concentration in mol/L.

Exam item: For `CC[C@@H]1C(=O)N(C)c2cnc(Nc3ccc(C(=O)N[C@H]4CC[C@H](N5CCN(CC6CC6)CC5)CC4)cc3OC)nc2N1C(C)C` , write its pEC50.
Marked response: 7.44

---

assay: Half life in BomTac:NMRI-Foxn1nu mouse at 35 mg/kg, iv by HPLC-MS/MS analysis; type: ADME, organism-based; conditions: in vivo
value.type: half-life (h)
Report the value in h with no unit label.

Exam item: For CC[C@@H]1C(=O)N(C)c2cnc(Nc3ccc(C(=O)N[C@H]4CC[C@H](N5CCN(CC6CC6)CC5)CC4)cc3OC)nc2N1C(C)C [VOLASERTIB] , write its half-life.
Marked response: 46

---

system: NCI-H460; assay: Antimitotic activity against human NCI-H460 cells assessed as inhibition of cell proliferation incubated for 72 hrs by Alamar blue based fluorescence spectrophotometric analysis; format: functional; details: NCI-H460, 72 h
value.type: pEC50
Keep it numeric: pEC50 is minus log10 of the concentration in mol/L.

Exam item: For `CC[C@@H]1C(=O)N(C)c2cnc(Nc3ccc(C(=O)N[C@H]4CC[C@H](N5CCN(CC6CC6)CC5)CC4)cc3OC)nc2N1C(C)C` , write its pEC50.
Marked response: 7.68

---

test: AUC (0 to 24 hrs) in human NCI-H460 cells xenografted in BomTac:NMRI-Foxn1nu mouse at 10 mg/kg, po administered daily upto 6 weeks by HPLC-MS/MS analysis; assay type: ADME, organism-based; conditions: in vivo, 1008 h
value.type: AUC (µM·h)
Report the value in µM·h with no unit label.

Exam item: For `CC[C@@H]1C(=O)N(C)c2cnc(Nc3ccc(C(=O)N[C@H]4CC[C@H](N5CCN(CC6CC6)CC5)CC4)cc3OC)nc2N1C(C)C` , write its AUC.
Marked response: 61

---

test: Oral bioavailability in BomTac:NMRI-Foxn1nu mouse at 50 mg/kg by HPLC-MS/MS analysis; format: ADME, organism-based; settings: in vivo
value.type: bioavailability
# do not omit the unit; it follows the number

Exam item: For `CC[C@@H]1C(=O)N(C)c2cnc(Nc3ccc(C(=O)N[C@H]4CC[C@H](N5CCN(CC6CC6)CC5)CC4)cc3OC)nc2N1C(C)C` , write its bioavailability.
Marked response: 41%

---

test: AUC (0 to 24 hrs) in human HCT-116 cells xenografted in BomTac:NMRI-Foxn1nu mouse at 20 mg/kg, iv administered once a week upto 6 weeks by HPLC-MS/MS analysis; type: ADME, organism-based; conditions: in vivo, 1008 h
value.type: AUC

Exam item: For `CC[C@@H]1C(=O)N(C)c2cnc(Nc3ccc(C(=O)N[C@H]4CC[C@H](N5CCN(CC6CC6)CC5)CC4)cc3OC)nc2N1C(C)C` , write its AUC.
Marked response: 40 µM·h

---

assay: Tmax in BomTac:NMRI-Foxn1nu mouse at 50 mg/kg, po by HPLC-MS/MS analysis; type: ADME, organism-based; details: in vivo
value.type: Tmax (h)
Report the value in h with no unit label.

Exam item: For `CC[C@@H]1C(=O)N(C)c2cnc(Nc3ccc(C(=O)N[C@H]4CC[C@H](N5CCN(CC6CC6)CC5)CC4)cc3OC)nc2N1C(C)C` , write its Tmax.
Marked response: 1.7

---

assay: AUC (0 to 24 hrs) in human HCT-116 cells xenografted in BomTac:NMRI-Foxn1nu mouse at 25 mg/kg, po administered twice a week upto 6 weeks by HPLC-MS/MS analysis; assay type: ADME, organism-based; conditions: in vivo, 1008 h
value.type: AUC (µM·h)
Report the value in µM·h with no unit label.

Exam item: For `CC[C@@H]1C(=O)N(C)c2cnc(Nc3ccc(C(=O)N[C@H]4CC[C@H](N5CCN(CC6CC6)CC5)CC4)cc3OC)nc2N1C(C)C` , write its AUC.
Marked response: 43

---

assay: Clearance in Wistar rat at 10 mg/kg, iv by HPLC-MS/MS analysis; format: ADME, organism-based; details: in vivo
value.type: clearance (L/h/kg)
Report the value in L/h/kg with no unit label.

Exam item: For `CC[C@@H]1C(=O)N(C)c2cnc(Nc3ccc(C(=O)N[C@H]4CC[C@H](N5CCN(CC6CC6)CC5)CC4)cc3OC)nc2N1C(C)C` , write its clearance.
Marked response: 0.534

---

assay: Cmax in Wistar rat at 10 mg/kg, iv by HPLC-MS/MS analysis; type: ADME, organism-based; conditions: in vivo
value.type: Cmax
# do not omit the unit; it follows the number

Exam item: For `CC[C@@H]1C(=O)N(C)c2cnc(Nc3ccc(C(=O)N[C@H]4CC[C@H](N5CCN(CC6CC6)CC5)CC4)cc3OC)nc2N1C(C)C` , write its Cmax.
Marked response: 11.9 µM

---

experiment: Drug uptake in human HCT-116 cells xenografted in BomTac:NMRI-Foxn1nu mouse at 35 mg/kg, iv measured after 168 hrs by HPLC-MS/MS analysis; type: ADME, organism-based, Neoplasm; conditions: tumour (HCT-116 xenograft)
value.type: concentration at 168 h (µM)
Report the value in µM with no unit label.

Exam item: For `CC[C@@H]1C(=O)N(C)c2cnc(Nc3ccc(C(=O)N[C@H]4CC[C@H](N5CCN(CC6CC6)CC5)CC4)cc3OC)nc2N1C(C)C` , write its concentration at 168 h.
Marked response: 4

---

experiment: Oral bioavailability in dog by HPLC-MS/MS analysis; assay type: ADME, organism-based, Canis lupus familiaris; conditions: in vivo
value.type: bioavailability (%)
Report the value in % with no unit label.

Exam item: For `CC[C@@H]1C(=O)N(C)c2cnc(Nc3ccc(C(=O)N[C@H]4CC[C@H](N5CCN(CC6CC6)CC5)CC4)cc3OC)nc2N1C(C)C` , write its bioavailability.
Marked response: 53
